Data provenance: the supplement of paper PMC11616607

Tested on: OVCAR4
Assay: drug sensitivity score (DSS) from 5-point dose-response viability curve (DSS (area-under-curve based score)); higher = more sensitive (stronger growth inhibition or killing); extreme values may be limits of the assay
Details: exposure time: 72 h; concentration range: 5 concentrations over 10,000-fold range
drug sensitivity score values for the molecules below.
assay_endpoint: drug sensitivity score

molecule: C/C(=C\c1csc(C)n1)[C@@H]1C[C@@H]2O[C@]2(C)CCC[C@H](C)[C@H](O)[C@@H](C)C(=O)C(C)(C)[C@@H](O)CC(=O)N1 [Ixabepilone]
endpoint_result: 2.1
//
molecule: COc1cc(Nc2ncc(F)c(Nc3ccc4c(n3)N(COP(=O)(O)O)C(=O)C(C)(C)O4)n2)cc(OC)c1OC
endpoint_result: 2.9
//
molecule: Cc1ccc(NS(=O)(=O)c2cccc(C#N)c2)c2[nH]cc(C#N)c12
endpoint_result: 4.4
//
molecule: Cc1nc(-c2cn3c(n2)-c2ccc(-c4cnn(C(C)(C)C(N)=O)c4)cc2OCC3)n(C(C)C)n1
endpoint_result: 2.1
//
molecule: Nc1nc(OCc2cc(Br)cs2)c2[nH]cnc2n1
endpoint_result: 0
//
molecule: C[C@]12C=CC(=O)C=C1CC[C@@H]1[C@@H]2[C@@H](O)C[C@@]2(C)[C@H]1CC[C@]2(O)C(=O)CO
endpoint_result: 0
//
molecule: CN1C(=O)N[C@H](Cc2c[nH]c3c(Cl)cccc23)C1=O
endpoint_result: 0
//
molecule: COc1cc(N2CCC(N3CCN(C)CC3)CC2)ccc1Nc1ncc(Cl)c(Nc2ccccc2P(C)(C)=O)n1
endpoint_result: 1.7
